Tested on: MDA-MB-231
Experiment: Induction of apoptosis in human MDA-MB-231 cells assessed as viable cells at 10 umol/L measured after 4 hrs by annexin-V-FITC/7-AAD staining based flow cytometric analysis (reference value: 97 to 98%)
Assay type: functional
Settings: MDA-MB-231, 4 h, read-out: Activity
Assay metric: viability at 10 µM (%)

CC(=O)c1cc2c(o1)-c1ccccc1C(=O)C2=O ... 82
CC1(C)CCC2=C(O1)c1ccccc1C(=O)C2=O [LAPACHONE] ... 93
CC(=O)c1cc2c(o1)C(=O)c1ccccc1C2=O [NAPABUCASIN] ... 97
O=C1C(=O)c2ccoc2-c2ccccc21 ... 95
